I'd appreciate it if you could supply protein stability index values for the items below.
- Test system: Saccharomyces cerevisiae
- assay.info: protein stability index of tFT-peptide fusion (C-terminal peptide) (PSI (0-1 scale)); higher = more stable (slower turnover);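 also: PSI is a weighted mean of sequencing reads over stability bins, variants kept only with over 10 reads, mCherry proximal and sfGFP distal, peptide attached via GGGS linker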
- settings: genetic background: wild type; temperature: 30 C
Respond numerically, and do not add a unit to the figure.

Record summary for YRCVQKEIVQRY : reported protein stability index = 0.693

For reference, reported protein stability index for TECGKVGGGGEA stands at 0.689

protein stability index measured on QSAPWPSPLSFS = 0.718

Please fill in: protein stability index reported for AHTPGTHLGRKT = 0.71

get_value(item= LRLSSFSFSRLS , readout=protein stability index) returns 0.701

Per the record, PVLLVWDLPAVL has protein stability index of 0.714

// protein stability index lookup, sequence = EGDRWAGEVVRG , result: 0.705

The sequence identified as PSPPTALCPPPL registered its protein stability index at 0.68

protein stability index reading for CRAAAGMVVWHG : 0.683

protein stability index reading for PGTEVSDTLEVL : 0.689

Entry GVCSRAVGSGSF — recorded protein stability index = 0.715

// YPSQLGPSVPLS : protein stability index value = 0.703

The reported protein stability index of the sequence HTNKNTTIQNKK was 0.702

Reported protein stability index ( EKNKKDKNIIIG ) = 0.681

====

- System: Saccharomyces cerevisiae
- assay.info: protein stability index of tFT-peptide fusion (C-terminal peptide) (PSI (0-1 scale)); higher = more stable (slower turnover)
- settings: genetic background: das1 deletion; temperature: 37 C
Exercise: for every item that follows, state its recorded protein stability index.
Number only, please.

Summary for this sequence, ELNERRKRLVTN : protein stability index is 0.718

sequence LRLCMVFAWFLT , protein stability index observed: 0.493

// recorded protein stability index for SFSFRPCLLLFF : 0.51

Value of measured protein stability index for the entry SINKLLILIKSI : 0.629

Looking up PPVPRLLPVLAP , I found its protein stability index recorded as 0.546

// sample LSCCIVLLIIFV , its protein stability index was 0.398

// sample TFRVLFSVALLV , its protein stability index was 0.344

Looking up FKWVSRIRLLDA , I found its protein stability index recorded as 0.483

# protein stability index of EKHRRYAITKFI = 0.732

protein stability index for FSLLTWPFVFLV is 0.346

The value of protein stability index measured for the sequence SRPLYVMICTRV turned out to be 0.558

// field: protein stability index; key: CVFAYSPVALRC ; value = 0.556

The sequence listed as PRPLLSIYLRHA has a reported protein stability index of 0.69

protein stability index reading for LSFLLLLGCFGS : 0.59

Record FWHGRCPGLYLV . Reported protein stability index: 0.726

Measured protein stability index of IRWCLVSVFYVV : 0.444

According to the records, this sequence SVVRCWVLLGVA displays protein stability index of 0.303

Reported protein stability index of DGSFCLLYMTIA : 0.615

protein stability index in this record for IVVSSRFLGFFC : 0.742

Lab note: measured protein stability index of KYKLYGIMIIEG was 0.472

Per the records, this sequence ( PVALYPVQAYLT ) has protein stability index equal to 0.715

For record LCSLPIVCCFFL the listed protein stability index is 0.57

Entry under test: CMAWLSVLKTLF . Its protein stability index was 0.756

Consider VLGFRPLVFLCF . Its measured protein stability index is 0.464

response.value for SGRAWRLRMHVI (field: protein stability index) = 0.757

So, RCTLFVNPVCVH ? Its protein stability index was 0.402

Please fill in: protein stability index reported for SFLCILIFPFFP = 0.6

// sample ERNERKYKIKIT , its protein stability index was 0.715

So for DVVRWQRVRNYV , the logged protein stability index turned out to be 0.737

Field protein stability index (entry LRVVLVEWMCVV ) reads 0.418

Lab note: IWRGGSAVPMIC gave protein stability index of 0.721

For this sequence ( PLLPTPLTAPPP ), measured protein stability index is 0.703

Summary for this sequence, WCVRRVRFVMGC : protein stability index is 0.479

So for NYCVFLSYLLFC , the logged protein stability index turned out to be 0.502

Lookup result for DGYLFKGIWFFV ; measured protein stability index: 0.738

The measured protein stability index associated with RPPSLVFLFLLT reads 0.598

Measured protein stability index, EVVFHVFLVGLV : 0.512

Entry GELPGELYKFWL — recorded protein stability index = 0.756

Per the record, FSFFLYFFLLLF has protein stability index of 0.402

The measured protein stability index associated with LPLSPPPLPSSR reads 0.704

Kindly note the recorded protein stability index for AWPGRLWYFWLA , which is 0.755

Query DPTLLLYPLSPL yields protein stability index of 0.748

# protein stability index (sequence: KKNLTHSIRVQA ) is 0.696

Measured protein stability index, ILFWSLLVSTIR : 0.263

protein stability index reading for YVSLPFVVWWFC : 0.591

Lookup result for SFYVCVPVLWLV ; measured protein stability index: 0.407

Consider RYLHFASLLFAS . Its measured protein stability index is 0.729

protein stability index reported for this sequence CFFILSLMVVVI : 0.229

Recorded result, VWSCILPMVYVW , protein stability index: 0.164

// LFLIYCFAFSIG : protein stability index value = 0.417

Recorded result, RISGSIVVRKRS , protein stability index: 0.722

Per the record, TLRINSPFYFLS has protein stability index of 0.751

Entry under test: VRHPVVVVRRVI . Its protein stability index was 0.706
